- Tested system: T1, extracellular domain of rhesus monkey BCMA (rhesus monkey, UniProt F7FFA0 1-53)
- T1 construct: extracellular domain; also called RhBCMA
- T1 sequence (F7FFA0 entry or part of it): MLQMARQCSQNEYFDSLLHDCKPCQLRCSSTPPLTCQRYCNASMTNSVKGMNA
- Experiment summary: Octet BLI; Fab 200 nM
pKd: −log10 of the molar value.

{"Binder": "AB200-R1a-Fab_Vk2 (Fab, V domains shown) VH: QVQLVQSGAEVKKPGSSVKVSCKASGGTFSNYWMHWVRQAPGQGLEWMGATYRGHSDTYYNQKFKGRVTITADKSTSTAYMELSSLRSEDTAVYYCARGAIYHGYDVLDNWGQGTLVTVSS VL: DIQMTQSPSSLSASVGDRVTITCSASQEVSNYLNWYQQKPGKAPKLLIYYTSNLHSGVPSRFSGSGSGTDFTLTISSLQPEDFATYYCQEYRKLPWTFGQGTKLEIKR", "pKd": 7.83}
{"Binder": "AB200-R1a-Fab_Vk9 (Fab, V domains shown) VH: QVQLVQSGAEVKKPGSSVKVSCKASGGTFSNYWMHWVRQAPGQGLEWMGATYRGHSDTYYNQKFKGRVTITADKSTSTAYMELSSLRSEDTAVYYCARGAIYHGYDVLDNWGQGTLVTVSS VL: DIQMTQSPSSLSASVGDRVTITCSASQEISNYLNWYQQKPGKAPKLLIYATSNLHSGVPSRFSGSGSGTDFTLTISSLQPEDFATYYCQQYRKLPWSFGQGTKLEIKR", "pKd": 8.10}
{"Binder": "AB200-R1a-Fab_Vk5 (Fab, V domains shown) VH: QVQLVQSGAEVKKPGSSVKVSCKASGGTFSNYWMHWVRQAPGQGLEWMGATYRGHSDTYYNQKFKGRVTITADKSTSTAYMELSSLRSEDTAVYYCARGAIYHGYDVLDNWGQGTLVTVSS VL: DIQMTQSPSSLSASVGDRVTITCSASQDISSYLNWYQQKPGKAPKLLIYYTSNLHSGVPSRFSGSGSGTDFTLTISSLQPEDFATYYCQQYRSTPWTFGQGTKLEIKR", "pKd": 7.56}
{"Binder": "AB200-R1a-Fab_Vk27 (Fab, V domains shown) VH: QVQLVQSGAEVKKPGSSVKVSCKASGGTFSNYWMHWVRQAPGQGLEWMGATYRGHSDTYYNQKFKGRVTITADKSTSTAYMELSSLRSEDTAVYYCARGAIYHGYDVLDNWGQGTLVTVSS VL: DIQMTQSPSSLSASVGDRVTITCSASQDITNYLNWYQQKPGKAPKLLIYFTSNLHSGVPSRFSGSGSGTDFTLTISSLQPEDFATYYCQQYYKLPWTFGQGTKLEIKR", "pKd": 7.97}
{"Binder": "AB200-R1a-Fab_Vk29 (Fab, V domains shown) VH: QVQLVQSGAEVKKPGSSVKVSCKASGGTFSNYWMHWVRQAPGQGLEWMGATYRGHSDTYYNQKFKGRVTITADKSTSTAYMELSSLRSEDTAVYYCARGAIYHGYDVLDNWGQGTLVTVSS VL: DIQMTQSPSSLSASVGDRVTITCSASHDVSNYLNWYQQKPGKAPKLLIYYTSNLHSGVPSRFSGSGSGTDFTLTISSLQPEDFATYYCQQYRRLPWTFGQGTKLEIKR", "pKd": 8.30}
{"Binder": "AB200-R1a-Fab_Vk7 (Fab, V domains shown) VH: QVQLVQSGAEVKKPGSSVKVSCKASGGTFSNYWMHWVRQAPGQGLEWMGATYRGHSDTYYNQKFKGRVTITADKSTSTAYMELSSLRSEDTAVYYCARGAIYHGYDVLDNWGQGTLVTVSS VL: DIQMTQSPSSLSASVGDRVTITCSASQDISNFLNWYQQKPGKAPKLLIYYTSNLHSGVPSRFSGSGSGTDFTLTISSLQPEDFATYYCQQFRKMPWTFGQGTKLEIKR", "pKd": 7.60}
{"Binder": "AB200-R1a-Fab_Vk25 (Fab, V domains shown) VH: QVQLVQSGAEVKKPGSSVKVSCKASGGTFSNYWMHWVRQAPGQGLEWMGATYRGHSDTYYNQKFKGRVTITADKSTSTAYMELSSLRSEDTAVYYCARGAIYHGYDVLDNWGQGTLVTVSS VL: DIQMTQSPSSLSASVGDRVTITCSASQDISNYLNWYQQKPGKAPKLLIYAASNLHSGVPSRFSGSGSGTDFTLTISSLQPEDFATYYCQQYRKIPWTFGQGTKLEIKR", "pKd": 7.87}
{"Binder": "AB200-R1a-Fab(hCDR2) (Fab, V domains shown) VH: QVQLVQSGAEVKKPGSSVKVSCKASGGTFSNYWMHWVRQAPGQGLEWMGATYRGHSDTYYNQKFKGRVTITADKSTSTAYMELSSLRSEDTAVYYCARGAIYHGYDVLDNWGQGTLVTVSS VL: DIQMTQSPSSLSASVGDRVTITCSASQDISNYLNWYQQKPGKAPKLLIYAASSLQSGVPSRFSGSGSGTDFTLTISSLQPEDFATYYCQQYRKLPWTFGQGTKLEIKR", "pKd": 8.15}
{"Binder": "AB200-R1a-Fab_Vk36 (Fab, V domains shown) VH: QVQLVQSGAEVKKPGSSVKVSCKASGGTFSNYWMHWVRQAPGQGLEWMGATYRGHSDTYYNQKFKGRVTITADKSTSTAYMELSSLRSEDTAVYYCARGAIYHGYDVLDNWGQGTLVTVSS VL: DIQMTQSPSSLSASVGDRVTITCSASQDLSNYLNWYQQKPGKAPKLLIYYTSNLQSGVPSRFSGSGSGTDFTLTISSLQPEDFATYYCQQYRRLPWTFGQGTKLEIKR", "pKd": 8.30}
{"Binder": "AB200-R1a-Fab(hCDR3) (Fab, V domains shown) VH: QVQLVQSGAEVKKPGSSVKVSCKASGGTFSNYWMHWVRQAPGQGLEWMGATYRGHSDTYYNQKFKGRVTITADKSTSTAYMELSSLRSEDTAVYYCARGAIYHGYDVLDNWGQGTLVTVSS VL: DIQMTQSPSSLSASVGDRVTITCSASQDISNYLNWYQQKPGKAPKLLIYYTSNLHSGVPSRFSGSGSGTDFTLTISSLQPEDFATYYCQQSYSTPWTFGQGTKLEIKR", "pKd": 6.95}
